- Assayed target: METTL1/WDR4 (Homo sapiens)
- Sequence (Q9UBP6 whole entry, species assumed): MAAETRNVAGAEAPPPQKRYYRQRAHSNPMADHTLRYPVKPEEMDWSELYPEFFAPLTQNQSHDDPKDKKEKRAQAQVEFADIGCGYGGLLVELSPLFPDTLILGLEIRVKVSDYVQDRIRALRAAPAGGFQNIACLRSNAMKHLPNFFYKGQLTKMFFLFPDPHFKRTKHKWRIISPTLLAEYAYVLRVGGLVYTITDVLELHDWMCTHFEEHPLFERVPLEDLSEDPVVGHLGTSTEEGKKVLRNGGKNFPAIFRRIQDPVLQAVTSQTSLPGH
- Sequence (P57081 whole entry partner, species assumed): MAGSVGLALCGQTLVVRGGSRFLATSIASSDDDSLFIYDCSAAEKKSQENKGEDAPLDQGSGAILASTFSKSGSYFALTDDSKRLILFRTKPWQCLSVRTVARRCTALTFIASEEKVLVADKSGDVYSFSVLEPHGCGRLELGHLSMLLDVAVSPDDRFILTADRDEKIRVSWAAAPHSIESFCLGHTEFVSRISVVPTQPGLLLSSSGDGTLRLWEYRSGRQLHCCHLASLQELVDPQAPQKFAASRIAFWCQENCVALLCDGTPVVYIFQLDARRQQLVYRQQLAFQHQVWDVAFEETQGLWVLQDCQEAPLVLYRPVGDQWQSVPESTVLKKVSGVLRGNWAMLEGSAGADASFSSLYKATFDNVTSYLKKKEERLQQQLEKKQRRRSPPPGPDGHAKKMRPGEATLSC
- Assay: METTL1 Assay (METTL1 biochemical assay)
- Condition set: read-out: METTL1 IC50; METTL1 biochemical assay

[
  {
    "Structure smiles": "Nc1ncnc2c1ccn2[C@@H]1C[C@H](CCc2ccc3[nH]ncc3c2)[C@@H](O)[C@H]1O",
    "IC50": "> 1000 nM"
  },
  {
    "Structure smiles": "Nc1ccc2ccc(CO[C@H]3C[C@@H](n4ccc5c(N)ncnc54)[C@H](O)[C@@H]3O)cc2n1",
    "IC50": "> 1000 nM"
  },
  {
    "Structure smiles": "CNc1ccc2ccc(CC[C@H]3O[C@@H](n4cc(C5CCCC5)c5c(N)ncnc54)[C@H](O)[C@@H]3O)cc2n1",
    "IC50": "> 1000 nM"
  },
  {
    "Structure smiles": "CNc1ccc2cc(CC[C@H]3C[C@@H](n4ccc5c(N)ncnc54)[C@H](O)[C@@H]3O)ccc2n1",
    "IC50": "> 1000 nM"
  },
  {
    "Structure smiles": "Cc1nc(N)c2ccn([C@@H]3C[C@H](CCc4ccc5ccc(N)nc5c4)[C@@H](O)[C@H]3O)c2n1",
    "IC50": "> 1000 nM"
  },
  {
    "Structure smiles": "Nc1ccc2ccc(CC[C@H]3C[C@@H](n4cc(C5CCCC5)c5c(N)ncnc54)[C@H](O)[C@@H]3O)cc2n1",
    "IC50": "> 1000 nM"
  },
  {
    "Structure smiles": "Nc1ncnc2c1ccn2[C@@H]1C[C@H](CCc2cccc(NC(=O)C3CC3)c2)[C@@H](O)[C@H]1O",
    "IC50": "> 1000 nM"
  },
  {
    "Structure smiles": "CNc1ccc2ccc(CC[C@H]3C[C@@H](n4cc(C5CCOCC5)c5c(N)ncnc54)[C@H](O)[C@@H]3O)cc2n1",
    "IC50": "> 1000 nM"
  },
  {
    "Structure smiles": "Nc1ccc2ccc(NC[C@H]3C[C@@H](n4ccc5c(N)ncnc54)[C@H](O)[C@@H]3O)cc2n1",
    "IC50": "> 1000 nM"
  },
  {
    "Structure smiles": "Nc1ncnc2c1ccn2[C@@H]1C[C@H](CCc2ccc3scnc3c2)[C@@H](O)[C@H]1O",
    "IC50": "> 1000 nM"
  },
  {
    "Structure smiles": "Nc1ncnc2c1ccn2[C@@H]1O[C@H](COc2ccc3ccc(N4CCCC4)nc3c2)[C@@H](O)[C@H]1O",
    "IC50": "> 1000 nM"
  },
  {
    "Structure smiles": "CNc1ccc2cc(CC[C@H]3C[C@@H](n4cc(C)c5c(N)ncnc54)[C@H](O)[C@@H]3O)ccc2n1",
    "IC50": "> 1000 nM"
  },
  {
    "Structure smiles": "Nc1ncnc2c1ccn2[C@@H]1C[C@H](COc2ccc3ccc(N4CCCC4)nc3c2)[C@@H](O)[C@H]1O",
    "IC50": "> 1000 nM"
  },
  {
    "Structure smiles": "CNc1ccc2ccc(OC[C@H]3O[C@@H](n4cc(C5CCN(C)CC5)c5c(N)ncnc54)[C@@H](F)[C@@H]3O)cc2n1",
    "IC50": "> 1000 nM"
  },
  {
    "Structure smiles": "CNC(=O)Nc1cccc(CC[C@H]2C[C@@H](n3ccc4c(N)ncnc43)[C@H](O)[C@@H]2O)c1",
    "IC50": "> 1000 nM"
  }
]

* * *

- Assayed target: METTL3/METTL14 (Homo sapiens, UniProt Q86U44)
- Sequence (Q86U44 whole entry, species assumed): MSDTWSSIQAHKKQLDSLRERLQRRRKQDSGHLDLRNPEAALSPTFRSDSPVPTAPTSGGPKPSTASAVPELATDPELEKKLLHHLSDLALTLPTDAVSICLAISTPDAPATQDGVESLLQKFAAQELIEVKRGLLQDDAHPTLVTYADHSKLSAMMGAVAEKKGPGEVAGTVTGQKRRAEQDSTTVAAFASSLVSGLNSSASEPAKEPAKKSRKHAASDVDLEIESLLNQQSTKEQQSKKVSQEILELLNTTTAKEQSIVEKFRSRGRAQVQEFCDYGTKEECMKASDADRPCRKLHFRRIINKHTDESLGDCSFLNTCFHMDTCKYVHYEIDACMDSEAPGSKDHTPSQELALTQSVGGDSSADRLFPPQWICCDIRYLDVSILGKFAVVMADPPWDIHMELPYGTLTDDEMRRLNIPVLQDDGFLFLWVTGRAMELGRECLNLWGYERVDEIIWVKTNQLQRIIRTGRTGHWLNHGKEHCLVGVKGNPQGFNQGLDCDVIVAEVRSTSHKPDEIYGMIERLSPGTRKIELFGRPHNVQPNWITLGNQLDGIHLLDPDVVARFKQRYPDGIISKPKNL
- Sequence (Q9HCE5 whole entry partner, species assumed): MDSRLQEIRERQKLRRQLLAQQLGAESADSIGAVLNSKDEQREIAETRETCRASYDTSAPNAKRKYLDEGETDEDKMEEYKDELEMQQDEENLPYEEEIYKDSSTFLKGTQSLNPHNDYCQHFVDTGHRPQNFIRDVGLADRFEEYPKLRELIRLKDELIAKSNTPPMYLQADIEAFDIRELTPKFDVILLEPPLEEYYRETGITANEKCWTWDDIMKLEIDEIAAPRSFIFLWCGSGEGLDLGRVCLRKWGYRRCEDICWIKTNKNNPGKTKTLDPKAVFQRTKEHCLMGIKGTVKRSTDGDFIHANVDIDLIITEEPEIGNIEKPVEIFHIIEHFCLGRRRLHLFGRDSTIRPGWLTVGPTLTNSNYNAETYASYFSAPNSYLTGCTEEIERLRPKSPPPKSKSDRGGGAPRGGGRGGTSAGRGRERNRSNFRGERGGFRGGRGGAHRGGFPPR
- Assay: METTL3-14 Standard Enzyme Assay (METTL3 biochemical assay)
- Condition set: METTL3 biochemical assay; read-out: METTL3 IC50
As shown below, each of these compounds has a reported IC50 value.
Metric: IC50

[
  {
    "Structure smiles": "Nc1ncnc2c1ccn2[C@@H]1C[C@H](CCc2cccnc2)[C@@H](O)[C@H]1O",
    "Result": "> 1000 nM"
  },
  {
    "Structure smiles": "Nc1ccc2cc(CC[C@H]3C[C@@H](n4ccc5c(NCCc6ccccc6)ncnc54)[C@H](O)[C@@H]3O)ccc2n1",
    "Result": "> 1000 nM"
  },
  {
    "Structure smiles": "Nc1ncnc2c1ccn2[C@@H]1C[C@H](CCc2ccc3ccc(N4CCCC4)nc3c2)[C@@H](O)[C@H]1O",
    "Result": "100 to 1000 nM"
  },
  {
    "Structure smiles": "CNc1ccc2ccc(CC[C@H]3C[C@@H](n4cc(CO)c5c(N)ncnc54)[C@H](O)[C@@H]3O)cc2n1",
    "Result": "< 10 nM"
  },
  {
    "Structure smiles": "CNc1ccc2ccc(OC[C@H]3O[C@@H](n4cnc5c(N)ncnc54)[C@H](O)[C@@H]3O)cc2n1",
    "Result": "10 to 100 nM"
  },
  {
    "Structure smiles": "CNc1ccc2ccc(CC[C@H]3C[C@@H](n4cc(C5CCCC5)c5c(N)ncnc54)[C@H](O)[C@@H]3O)cc2n1",
    "Result": "< 10 nM"
  },
  {
    "Structure smiles": "Nc1ccc2ccc(CC[C@H]3C[C@@H](n4ccc5c(N)ncnc54)[C@H](O)[C@@H]3O)cc2n1",
    "Result": "100 to 1000 nM"
  }
]

* * *

Below: a set of entries, each annotated with reported pIC50.
- System: MOLM-13 cells
- Assay: MOLM-13 48 Hour Cell Proliferation Assay
- Format: cell-based
- Condition set: Homo sapiens
pIC50: −log10 of the molar value.

[
  {
    "Structure smiles": "CNc1ccc2ccc(OC[C@H]3O[C@@H](n4cc(-c5ccc(C)cn5)c5c(N)ncnc54)[C@@H](F)[C@@H]3O)cc2n1",
    "pIC50": "> 6.00"
  },
  {
    "Structure smiles": "Cn1ccc(-c2cn([C@@H]3O[C@H](COc4ccc5ccc(N6CCC6)nc5c4)[C@@H](O)[C@@H]3F)c3ncnc(N)c23)n1",
    "pIC50": "> 6.00"
  },
  {
    "Structure smiles": "Cn1ccc(-c2cn([C@@H]3O[C@H](COc4ccc5ccc(N6CC(N)C6)nc5c4)[C@@H](O)[C@@H]3F)c3ncnc(N)c23)n1",
    "pIC50": "> 6.00"
  },
  {
    "Structure smiles": "CCc1cc(N(C)C2CC2)c2ccc(OC[C@H]3O[C@@H](n4cc(-c5ccn(C)n5)c5c(N)ncnc54)[C@@H](F)[C@@H]3O)cc2n1",
    "pIC50": "5.00 to 6.00"
  },
  {
    "Structure smiles": "CNc1ccc2ccc(OC[C@H]3O[C@@H](n4cc([C@@H]5CCCO5)c5c(N)ncnc54)[C@@H](F)[C@@H]3O)cc2n1",
    "pIC50": "5.00 to 6.00"
  },
  {
    "Structure smiles": "CCc1cc(NC)c2ccc(OC[C@H]3O[C@@H](n4cc(-c5ccn(C)n5)c5c(N)ncnc54)[C@@H](F)[C@@H]3O)cc2n1",
    "pIC50": "< 5.00"
  }
]

* * *

- Assayed target: PRMT5-MEP50 (Homo sapiens, UniProt O14744)
- Sequence (O14744 whole entry): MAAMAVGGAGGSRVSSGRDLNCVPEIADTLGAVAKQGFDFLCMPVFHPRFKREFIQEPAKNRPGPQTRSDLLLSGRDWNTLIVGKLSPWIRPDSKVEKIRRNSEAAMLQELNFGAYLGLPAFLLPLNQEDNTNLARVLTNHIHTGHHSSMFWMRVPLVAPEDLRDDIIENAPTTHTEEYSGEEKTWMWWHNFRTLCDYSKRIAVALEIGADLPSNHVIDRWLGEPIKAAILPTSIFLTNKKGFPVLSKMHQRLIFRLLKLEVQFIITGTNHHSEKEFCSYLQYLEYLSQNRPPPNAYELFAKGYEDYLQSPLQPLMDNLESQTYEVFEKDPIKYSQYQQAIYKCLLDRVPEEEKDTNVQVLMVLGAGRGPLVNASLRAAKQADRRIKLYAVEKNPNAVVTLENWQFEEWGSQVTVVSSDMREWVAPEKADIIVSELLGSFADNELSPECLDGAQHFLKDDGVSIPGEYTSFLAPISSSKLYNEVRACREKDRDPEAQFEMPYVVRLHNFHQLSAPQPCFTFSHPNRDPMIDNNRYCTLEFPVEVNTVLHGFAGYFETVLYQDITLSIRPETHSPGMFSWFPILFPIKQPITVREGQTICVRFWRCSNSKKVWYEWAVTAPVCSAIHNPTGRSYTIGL
- Sequence (Q9BQA1 whole entry partner): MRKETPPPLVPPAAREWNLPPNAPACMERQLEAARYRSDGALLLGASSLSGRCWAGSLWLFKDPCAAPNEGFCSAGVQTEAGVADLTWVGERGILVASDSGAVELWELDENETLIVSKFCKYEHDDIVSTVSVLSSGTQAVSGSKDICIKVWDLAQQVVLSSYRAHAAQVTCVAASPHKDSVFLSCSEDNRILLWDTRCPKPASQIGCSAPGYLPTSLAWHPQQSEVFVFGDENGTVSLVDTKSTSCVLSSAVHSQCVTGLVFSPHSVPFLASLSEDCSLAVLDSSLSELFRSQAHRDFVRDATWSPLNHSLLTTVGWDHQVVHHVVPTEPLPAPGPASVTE
- Assay: PRMT5 Assay (PRMT5 biochemical assay)
- Condition set: PRMT5 biochemical assay; read-out: PRMT5 IC50
Metric: IC50

[
  {
    "Compound": "Nc1ccc2ccc(OC[C@H]3O[C@@H](n4ccc5c(N)ncnc54)[C@H](O)[C@@H]3O)cc2n1",
    "Result": "< 10 nM"
  },
  {
    "Compound": "Nc1cc(C2CC2)nc2cc(OC[C@H]3O[C@@H](n4cc(Br)c5c(N)ncnc54)[C@@H](F)[C@@H]3O)ccc12",
    "Result": "100 to 1000 nM"
  },
  {
    "Compound": "Nc1ccc2ccc(NC[C@H]3C[C@@H](n4ccc5c(N)ncnc54)[C@H](O)[C@@H]3O)cc2n1",
    "Result": "10 to 100 nM"
  },
  {
    "Compound": "CNc1ccc2ccc(OC[C@H]3O[C@@H](n4cc(CC5CC5)c5c(N)ncnc54)[C@@H](F)[C@@H]3O)cc2n1",
    "Result": "100 to 1000 nM"
  },
  {
    "Compound": "Nc1cc(OC[C@H]2O[C@@H](n3ccc4c(N)ncnc43)[C@@H](F)[C@@H]2O)ccc1C(=O)N1CCNCC1",
    "Result": "> 1000 nM"
  },
  {
    "Compound": "CC(C)Nc1ccc2ccc(CC[C@H]3C[C@@H](n4ccc5c(N)ncnc54)[C@H](O)[C@@H]3O)cc2n1",
    "Result": "< 10 nM"
  },
  {
    "Compound": "CNc1ccc2ccc(OC[C@H]3O[C@@H](n4cc(-c5ccn(C6CCC6)n5)c5c(N)ncnc54)[C@@H](F)[C@@H]3O)cc2n1",
    "Result": "100 to 1000 nM"
  },
  {
    "Compound": "Nc1ncnc2c1ccn2[C@@H]1O[C@H](COc2ccc3ccc(N4CCCC4)nc3c2)[C@@H](O)[C@H]1O",
    "Result": "10 to 100 nM"
  },
  {
    "Compound": "CNc1ccc2ccc(OC[C@H]3O[C@H](n4cc(C(O)C5CC5)c5c(N)ncnc54)[C@H](O)[C@@H]3O)cc2n1 (some centres unmarked)",
    "Result": "< 10 nM"
  },
  {
    "Compound": "CNc1ccc2ccc(OC[C@H]3O[C@@H](n4cc(C5CCN(C)C5)c5c(N)ncnc54)[C@@H](F)[C@@H]3O)cc2n1 (some centres unmarked)",
    "Result": "100 to 1000 nM"
  },
  {
    "Compound": "Nc1cccc2ccc(CC[C@H]3C[C@@H](n4ccc5c(N)ncnc54)[C@H](O)[C@@H]3O)cc12",
    "Result": "100 to 1000 nM"
  },
  {
    "Compound": "CNc1ccc2ccc(OC[C@H]3O[C@@H](n4cc(C)c5c(N)ncnc54)[C@H](O)[C@@H]3O)cc2n1",
    "Result": "100 to 1000 nM"
  },
  {
    "Compound": "CNc1ccc2ccc(CC[C@H]3C[C@@H](n4cc(C5CCOCC5)c5c(N)ncnc54)[C@H](O)[C@@H]3O)cc2n1",
    "Result": "< 10 nM"
  },
  {
    "Compound": "O[C@@H]1[C@@H](CCc2ccc3[nH]ncc3c2)C[C@@H](n2ccc3c(NCCc4ccccc4)ncnc32)[C@@H]1O",
    "Result": "100 to 1000 nM"
  },
  {
    "Compound": "CNc1ccc2cc(OC[C@H]3O[C@@H](n4cc(Br)c5c(N)ncnc54)[C@H](O)[C@@H]3O)ccc2n1",
    "Result": "10 to 100 nM"
  },
  {
    "Compound": "CNc1ccc2cc(CC[C@H]3C[C@@H](n4cc(C)c5c(N)ncnc54)[C@H](O)[C@@H]3O)ccc2n1",
    "Result": "10 to 100 nM"
  },
  {
    "Compound": "Cc1cn([C@@H]2O[C@H](COc3ccc4ccc(NCC5CC5)nc4c3)[C@@H](O)[C@H]2O)c2ncnc(N)c12",
    "Result": "100 to 1000 nM"
  },
  {
    "Compound": "Nc1ncnc2c1ccn2[C@H]1C[C@H](O)[C@@H](COc2ccc3ccc(N4CC(N)C4)nc3c2)O1",
    "Result": "10 to 100 nM"
  },
  {
    "Compound": "Nc1ncnc2c1ccn2[C@@H]1O[C@H](COc2ccc3ccc(N4CCOCC4)nc3c2)[C@@H](O)[C@H]1O",
    "Result": "100 to 1000 nM"
  },
  {
    "Compound": "CNc1ccc2ccc(OC[C@H]3O[C@@H](n4cc(Cl)c5c(N)ncnc54)[C@@H](F)[C@@H]3O)cc2n1",
    "Result": "10 to 100 nM"
  },
  {
    "Compound": "Nc1ccc2ccc(CO[C@H]3C[C@@H](n4ccc5c(N)ncnc54)[C@H](O)[C@@H]3O)cc2n1",
    "Result": "< 10 nM"
  },
  {
    "Compound": "Nc1ncnc2c1ccn2[C@@H]1C[C@H](CCc2ccc3ccncc3c2)[C@@H](O)[C@H]1O",
    "Result": "10 to 100 nM"
  },
  {
    "Compound": "CNc1ccc2ccc(OC[C@H]3O[C@@H](n4cc(Br)c5c(N)ncnc54)C[C@@H]3O)cc2n1",
    "Result": "100 to 1000 nM"
  },
  {
    "Compound": "COc1cccc(CC[C@H]2C[C@@H](n3ccc4c(N)ncnc43)[C@H](O)[C@@H]2O)n1",
    "Result": "> 1000 nM"
  },
  {
    "Compound": "Cc1cc2c(N)ncnc2n1[C@@H]1C[C@H](CCc2ccc3nc(N)ccc3c2)[C@@H](O)[C@H]1O",
    "Result": "10 to 100 nM"
  },
  {
    "Compound": "CN(C)c1ccc2ccc(CC[C@H]3C[C@@H](n4ccc5c(N)ncnc54)[C@H](O)[C@@H]3O)cc2n1",
    "Result": "10 to 100 nM"
  },
  {
    "Compound": "Cc1cc2c(N)ncnc2n1[C@@H]1C[C@H](COc2ccc3ccc(N)nc3c2)[C@@H](O)[C@H]1O",
    "Result": "< 10 nM"
  },
  {
    "Compound": "CNc1ccc2ccc(OC[C@@H]3C[C@@H](O)[C@H](n4cc(C5CCCC5)c5c(N)ncnc54)O3)cc2n1",
    "Result": "100 to 1000 nM"
  },
  {
    "Compound": "Nc1ncnc2c1ccn2[C@H]1C[C@H](O)[C@@H](CCc2ccc3ccc(N4CCC4)nc3c2)O1",
    "Result": "> 1000 nM"
  }
]
